# assay name: in vivo
# condition notes: male, Sprague Dawley, rat, iv, 0.15 mg/kg/day, Cmax
observable: Cmax (ng/mL)
Numeric answer only, unit ng/mL assumed.

# input Cmax for CC(C)[C@]12O[C@H]1[C@@H]1O[C@]13[C@]1(O[C@H]1C[C@H]1C4=C(CC[C@@]13C)C(=O)OC4)[C@@H]2O [Triptolide] ?
# output 59

###

# assay name: in vivo
# condition notes: male, Sprague Dawley, rat, iv, 0.15 mg/kg/day, Vz
observable: Vd (L)
Numeric answer only, unit L assumed.

# input Vd for CC(C)[C@]12O[C@H]1[C@@H]1O[C@]13[C@]1(O[C@H]1C[C@H]1C4=C(CC[C@@]13C)C(=O)OC4)[C@@H]2O [Triptolide] ?
# output 0.8

###

# assay name: in vivo
# condition notes: Sprague-Dawley, rat, Vz range
observable: Vd

# input Vd for CC(C)[C@]12O[C@H]1[C@@H]1O[C@]13[C@]1(O[C@H]1C[C@H]1C4=C(CC[C@@]13C)C(=O)OC4)[C@@H]2O [Triptolide] ?
# output 0.2 to 2.2 L

###

# assay name: in vivo
# condition notes: female, Sprague Dawley, rat, iv, 0.15 mg/kg/day, T1/2,e
observable: half-life (min)
Numeric answer only, unit min assumed.

# input half-life for CC(C)[C@]12O[C@H]1[C@@H]1O[C@]13[C@]1(O[C@H]1C[C@H]1C4=C(CC[C@@]13C)C(=O)OC4)[C@@H]2O [Triptolide] ?
# output 19.8

###

# assay name: in vivo
# condition notes: male, Sprague Dawley, rat, iv, 0.05 mg/kg/day, T1/2,e
observable: half-life (min)
Numeric answer only, unit min assumed.

# input half-life for CC(C)[C@]12O[C@H]1[C@@H]1O[C@]13[C@]1(O[C@H]1C[C@H]1C4=C(CC[C@@]13C)C(=O)OC4)[C@@H]2O [Triptolide] ?
# output 9

###

# assay name: in vivo
# condition notes: male, Sprague Dawley, rat, iv, 0.3 mg/kg/day, Vz
observable: Vd (L)
Numeric answer only, unit L assumed.

# input Vd for CC(C)[C@]12O[C@H]1[C@@H]1O[C@]13[C@]1(O[C@H]1C[C@H]1C4=C(CC[C@@]13C)C(=O)OC4)[C@@H]2O [Triptolide] ?
# output 0.8

###

# assay name: in vivo
# condition notes: male, Sprague Dawley, rat, iv, 0.05 mg/kg/day
observable: Tmax (min)
Numeric answer only, unit min assumed.

# input Tmax for CC(C)[C@]12O[C@H]1[C@@H]1O[C@]13[C@]1(O[C@H]1C[C@H]1C4=C(CC[C@@]13C)C(=O)OC4)[C@@H]2O [Triptolide] ?
# output 15

###

# assay name: in vivo
# condition notes: female, Sprague Dawley, rat, iv, 0.3 mg/kg/day, T1/2,e
observable: half-life (min)
Numeric answer only, unit min assumed.

# input half-life for CC(C)[C@]12O[C@H]1[C@@H]1O[C@]13[C@]1(O[C@H]1C[C@H]1C4=C(CC[C@@]13C)C(=O)OC4)[C@@H]2O [Triptolide] ?
# output 23.4

###

# assay name: in vivo
# condition notes: male, Sprague Dawley, rat, iv, 0.15 mg/kg/day, Cl
observable: clearance (mL/min)
Numeric answer only, unit mL/min assumed.

# input clearance for CC(C)[C@]12O[C@H]1[C@@H]1O[C@]13[C@]1(O[C@H]1C[C@H]1C4=C(CC[C@@]13C)C(=O)OC4)[C@@H]2O [Triptolide] ?
# output 48.3
